pIC50: −log10 of the molar value. Structures can show the parent of a compound that is named as a salt.
Let's go through some pIC50 measurements on Human PKK (Homo sapiens (Human)) together.
Sequence (P03952 391-638): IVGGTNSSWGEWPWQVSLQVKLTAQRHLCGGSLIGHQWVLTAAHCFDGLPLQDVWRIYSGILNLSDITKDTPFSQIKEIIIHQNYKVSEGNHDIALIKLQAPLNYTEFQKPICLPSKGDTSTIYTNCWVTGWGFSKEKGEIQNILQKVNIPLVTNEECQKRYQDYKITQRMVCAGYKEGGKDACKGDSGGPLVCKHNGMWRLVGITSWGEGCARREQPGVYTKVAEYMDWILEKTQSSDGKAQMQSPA
Sequence (P03952 20-390 partner): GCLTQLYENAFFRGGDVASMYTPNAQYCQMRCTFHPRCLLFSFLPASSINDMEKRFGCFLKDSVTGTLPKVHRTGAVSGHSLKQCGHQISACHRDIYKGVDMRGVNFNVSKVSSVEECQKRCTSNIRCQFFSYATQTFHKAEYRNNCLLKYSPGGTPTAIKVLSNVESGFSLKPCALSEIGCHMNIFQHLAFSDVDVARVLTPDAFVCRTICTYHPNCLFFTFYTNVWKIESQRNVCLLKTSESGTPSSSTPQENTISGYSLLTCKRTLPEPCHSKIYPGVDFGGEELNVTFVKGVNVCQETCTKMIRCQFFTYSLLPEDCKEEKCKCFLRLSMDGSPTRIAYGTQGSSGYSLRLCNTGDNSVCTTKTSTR
recorded_metric: pIC50

- compound: "COCc1nn(Cc2cnc(N3CC4C(C3)C4(F)F)nc2C)cc1C(=O)N[C@@H]1CCc2c(C)n[nH]c21 (stereo partly drawn)"
  system: "Human PKK (Homo sapiens (Human))"
  recorded_metric: "pIC50"
  measurement: 8.52
- compound: "Cc1nc(N2CC(C)(C)C2)ccc1Cn1cc(C(=O)N[C@@H]2CCc3c2n[nH]c3C)cn1"
  system: "Human PKK (Homo sapiens (Human))"
  recorded_metric: "pIC50"
  measurement: 8.70
- compound: "Cc1nc(N2CC3CC3C2C)ccc1Cn1cc(C(=O)N[C@@H]2CCc3c2n[nH]c3C)cn1 (stereo partly drawn)"
  system: "Human PKK (Homo sapiens (Human))"
  recorded_metric: "pIC50"
  measurement: 8.70
- compound: "Cc1nc(N2CC3CC(C2)C3O)ccc1Cn1cc(C(=O)N[C@@H]2CCc3c2n[nH]c3C)cn1 (stereo partly drawn)"
  system: "Human PKK (Homo sapiens (Human))"
  recorded_metric: "pIC50"
  measurement: 8.05
- compound: "Cc1nc(N2CC(c3ccc(F)cc3)C2)ccc1Cn1cc(C(=O)N[C@@H]2CCc3c2n[nH]c3C)cn1"
  system: "Human PKK (Homo sapiens (Human))"
  recorded_metric: "pIC50"
  measurement: 6.79
- compound: "Cc1nc(N2CCC(C)(C#N)C2)ccc1Cn1cc(C(=O)N[C@@H]2CCc3c2n[nH]c3C)cn1 (stereo partly drawn)"
  system: "Human PKK (Homo sapiens (Human))"
  recorded_metric: "pIC50"
  measurement: 8.70
- compound: "Cc1nc(N2CCC3(C2)CC3(F)F)ccc1Cn1cc(C(=O)N[C@@H]2CCc3c2n[nH]c3C)cn1 (stereo partly drawn)"
  system: "Human PKK (Homo sapiens (Human))"
  recorded_metric: "pIC50"
  measurement: 8.05
- compound: "Cc1nc(N2CC3CC3C2)ccc1Cn1cc(C(=O)N[C@@H]2CCc3c(C)n[nH]c32)c(C(F)F)n1 (stereo partly drawn)"
  system: "Human PKK (Homo sapiens (Human))"
  recorded_metric: "pIC50"
  measurement: 9.30
- compound: "Cc1nc(N2CC3CC3C2)ccc1Cn1cc(C(=O)N[C@@H]2CCc3c(C)n[nH]c32)c2cncnc21 (stereo partly drawn)"
  system: "Human PKK (Homo sapiens (Human))"
  recorded_metric: "pIC50"
  measurement: 9.05
- compound: "Cc1[nH]nc2c1CC[C@H]2NC(=O)c1cn(Cc2ccc(N3CC4CC4C3)nc2)cn1 (stereo partly drawn)"
  system: "Human PKK (Homo sapiens (Human))"
  recorded_metric: "pIC50"
  measurement: 8.70
- compound: "Cc1nc(N2CC3CC3C2)ncc1Cn1cc(C(=O)N[C@@H]2CCc3c(C)n[nH]c32)nn1 (stereo partly drawn)"
  system: "Human PKK (Homo sapiens (Human))"
  recorded_metric: "pIC50"
  measurement: 8.70
- compound: "Cc1nc(N2CC3C(C2)C3(F)F)ncc1Cn1cc(C(=O)N[C@@H]2CCc3c2n[nH]c3C)cn1 (stereo partly drawn) [Example 84, TFA salt]"
  system: "Human PKK (Homo sapiens (Human))"
  recorded_metric: "pIC50"
  measurement: 8.70
- compound: "Cc1nc(N2CC3CC3C2)ccc1Cn1cc(C(=O)NC2CCc3c(C)n[nH]c32)cn1 (stereo not drawn)"
  system: "Human PKK (Homo sapiens (Human))"
  recorded_metric: "pIC50"
  measurement: 8.70
- compound: "Cc1nc(N2CC3(CCC3)C2)ccc1Cn1cc(C(=O)N[C@@H]2CCc3c2n[nH]c3C)cn1"
  system: "Human PKK (Homo sapiens (Human))"
  recorded_metric: "pIC50"
  measurement: 8.70
- compound: "Cc1nc(N2CC3COCC(C3)C2)ccc1Cn1cc(C(=O)N[C@@H]2CCc3c2n[nH]c3C)cn1"
  system: "Human PKK (Homo sapiens (Human))"
  recorded_metric: "pIC50"
  measurement: 7.64
